Value source: patent US20170280720A1

Target: human PRMT1 (Homo sapiens, UniProt Q99873)
Construct: GST-tagged PRMT1; made in house; host or cells: High Five insect cells (baculovirus, pFastBacI)
Sequence (Q99873 with tags, fused parts or gaps): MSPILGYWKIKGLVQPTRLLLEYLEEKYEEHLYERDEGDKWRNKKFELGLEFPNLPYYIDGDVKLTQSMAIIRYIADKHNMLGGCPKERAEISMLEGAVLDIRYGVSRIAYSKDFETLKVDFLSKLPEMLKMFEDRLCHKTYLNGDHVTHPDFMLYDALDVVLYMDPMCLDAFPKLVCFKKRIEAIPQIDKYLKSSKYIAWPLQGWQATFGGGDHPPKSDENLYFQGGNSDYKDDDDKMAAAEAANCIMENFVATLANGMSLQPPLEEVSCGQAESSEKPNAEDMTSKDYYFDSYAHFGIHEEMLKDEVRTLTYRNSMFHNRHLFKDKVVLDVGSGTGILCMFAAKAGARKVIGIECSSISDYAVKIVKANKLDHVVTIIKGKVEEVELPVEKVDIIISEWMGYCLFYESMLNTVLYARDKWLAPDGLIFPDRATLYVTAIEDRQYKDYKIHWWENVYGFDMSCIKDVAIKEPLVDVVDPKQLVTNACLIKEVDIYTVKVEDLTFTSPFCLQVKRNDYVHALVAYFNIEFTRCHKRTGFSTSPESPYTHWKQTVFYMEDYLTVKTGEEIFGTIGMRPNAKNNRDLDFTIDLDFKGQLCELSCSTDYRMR
Test: PRMT1 biochemical assay (3H-SAM Flashplate, peptide substrate)
Details: read-out: PRMT1_ IC50
pIC50: −log10 of the molar value.
reported.property: pIC50

a: CC(C)n1ncc2c(C(=O)N[C@@H](C)c3ccccc3)cc(-c3cccc(CN(C)CCN)c3)nc21 [Compound 136]
b: CNCCN(C)Cc1cccc(-c2cc(C(=O)NCCC(=O)NCC3CCOCC3)c3cnn(C(C)C)c3n2)c1 [Compound 64]
c: CNCCN(C)Cc1cccc(-c2cc(C(=O)NC3CCOCC3)c3cnn(C4CCC4)c3n2)c1 [Compound 29]
d: CNCCN(C)Cc1cccc(-c2nc(NCc3cc(C)nn3C)c3cnn(C4CC4)c3n2)c1 [Compound 17]
Order the entries above by descending pIC50. Use the labels to give the ranking in the order requested.
d, c, b, a
(d: 7.16, c: 6.94, b: 6.57, a: 6.03)

a: CNCCN(C)Cc1cccc(-c2cc(NC(=O)NC3CCOCC3)c3cnn(C(C)C)c3n2)c1 [Compound 133]
b: CNCCN(C)Cc1cccc(-c2cc(C(=O)NCC3CCOCC3)c3cnn(C(C)C)c3n2)c1 [Compound 105]
API: POST /compare with a and b ; response names the item with higher pIC50. API: response body contains the label of the selected item.
b
(b: 6.26, a: 6.06)

1: CNCCN(C)Cc1cccc(-c2cc(NC(=O)NC)c3cnn(C(C)C)c3n2)c1 [Compound 138]
2: CC(C)n1ncc2c(NS(=O)(=O)N(C)C)cc(-c3cccc(CN(C)CCN)c3)nc21 [Compound 107]
API: POST /compare with 1 and 2 ; response names the item with higher pIC50. API: response body contains the label of the selected item.
2
(2: 6.25, 1: 5.98)

1: COc1ccccc1-c1nc2ccc(-c3ccc(CNCCN)cc3)cc2[nH]1 [Compound 115]
2: CNCCN(C)Cc1cccc(-c2nc(NCc3cnn(C)c3C)c3cnn(C4CC4)c3n2)c1 [Compound 57]
API: POST /compare with 1 and 2 ; response names the item with higher pIC50. API: response body contains the label of the selected item.
2

1: CNCCN(C)Cc1cccc(-c2cc(C(=O)NCCCC(=O)NCc3ccn(C)n3)c3cnn(C(C)C)c3n2)c1 [Compound 88]
2: CC(C)n1cc2c(Cl)cc(-c3cccc(CN(C)CCN)c3)nc2n1 [Compound 59]
API: POST /compare with 1 and 2 ; response names the item with higher pIC50. API: response body contains the label of the selected item.
2
(2: 6.61, 1: 6.38)

###

Test system: asymmetric di-methyl PABP1 in RKO cells
Assay: In Cell Western (ICW) for asymmetric di-methyl PABP1 and DNA content in RKO cells
Type: cell-based
Settings: Homo sapiens, RKO, In Cell Western
reported.property: IC50 (µM)

See these solved cases before continuing.
| compound | reported.property | reported.result |
| --- | --- | --- |
| Cc1nn(C(C)C)c2nc(-c3cccc(CN(C)CCN)c3)cc(N3CCOCC3)c12 [Compound 22] | IC50 | 3.11 |
| CN(CCN)Cc1cccc(-c2nc(NC3CCOCC3)c3cnn(C4CC4)c3n2)c1 [Compound 174] | IC50 | 5.04 |
| CNCCN(C)Cc1cccc(-c2cc(NC(=O)N(C)C)c3cnn(C(C)C)c3n2)c1 [Compound 123] | IC50 | 4.78 |
| CCOC(=O)Nc1cc(-c2cccc(CN(C)CCN)c2)nc2c1cnn2C(C)C [Compound 173] | IC50 | 3.31 |
| CN(CCN)Cc1cccc(-c2cc(C(=O)NC3CCOCC3)cc(N(C)CC3CC3)c2)c1 [Compound 217] | IC50 | 5.69 |
| CC(C)n1ncc2c(C(=O)N(C)Cc3ccccc3)cc(-c3cccc(CNCCN)c3)nc21 [Compound 238] | IC50 | 20 |

1: CNCCN(C)Cc1cccc(-c2cnc3c(c2)c(Br)nn3CC2CCOCC2)c1 [Compound 39]
2: CNCCN(C)Cc1cccc(-c2cc(C(=O)NCc3cccnc3)c3cnn(C(C)C)c3n2)c1 [Compound 199]
API: POST /compare with 1 and 2 ; response names the item with higher IC50. API: response body contains the label of the selected item.
1
